system: OVCAR-4; assay: NCI tumour cell line growth inhibition, 48 h
Activity calls are given as the source filed them. Rule as the data show it: active = GI50 up to about 1.1 µM and inactive = higher.
quantity_name: GI50

Ask: # GI50 lookup, item Cc1ccc(C2SCC(=O)N2c2ccc(-c3ccc(-n4c(-c5ccccc5)nc5ccccc5c4=O)cc3)cc2)cc1 (stereo not given)
Result: 51.3 µM (inactive)

Ask: # GI50 lookup, item C=CCON(C(=O)OC(C)(C)C)C(C)(C)C
Result: 1.55 µM (inactive)

Ask: # GI50 lookup, item CC[C@H](NC(=O)OC(C)(C)C)C(=O)NCP(=O)(OCc1ccc([N+](=O)[O-])cc1)OCc1ccc([N+](=O)[O-])cc1
Result: 25.1 µM (inactive)

Ask: # GI50 lookup, item CCCCCCCCCCCC1=NCCN1
Result: 14.8 µM (inactive)

Ask: # GI50 lookup, item Nc1ccc(C(=O)NN2C(=O)C(Cl)C2c2cc(Br)ccc2O)cc1 (stereo not given)
Result: > 100 µM (inactive)

Ask: # GI50 lookup, item O=c1c2ccccc2[nH]n1Cc1ccccc1
Result: > 100 µM (inactive)

Ask: # GI50 lookup, item CCP(=O)(CC)C(Cl)(Cl)C(O)C(C)(C)C (stereo not given)
Result: > 100 µM (inactive)

Ask: # GI50 lookup, item NC(=S)N1N=C2c3ccccc3CC[C@H]2[C@@H]1c1cccs1
Result: 45.2 µM (inactive)

Ask: # GI50 lookup, item O=C1C(c2ccc([N+](=O)[O-])cc2)=[N+]([O-])c2ccc([N+](=O)[O-])cc21
Result: 28.1 µM (inactive)

Ask: # GI50 lookup, item Cc1c(C(=O)/C=C/c2ccc([N+](=O)[O-])cc2)[n+]([O-])c2ccccc2[n+]1[O-]
Result: 24.8 µM (inactive)
